Please respond with reported Average MIC for every item in the list.
System: Xanthomonas campestris pv. campestris (Xcc) ATCC 33913
Assay: Minimal inhibitory concentration (MIC) assay
Format: cell-based
Settings: 24 h, 28° C., ND = non-detected at tested concentrations (up to 200 μg/ml)
Protocol: Bacterial strains and growth conditions: The bacterial strains used in this study are detailed in Table 2. […] Minimal inhibitory concentration (MIC) assay: MIC values were determined by broth microdilution in sterile 96-flat bottom well plates (Corning 3650) as described by Hayouka et al. (2013). […] Bacterial growth was determined after incubation of 24 h at 28° C. by measurement of the optical density (OD595 nm), using a Tecan infinite Pro Plate reader. […]
Square brackets hold non-standard residues; d marks the D form. Peptide text beside a SMILES is read from it. * marks the point of attachment. Palmitoyl = CCCCCCCCCCCCCCCC(=O)*

What value of Average MIC has been reported for the following molecule? CCCCCCCCCCCCCCCC(=O)N[C@H](CCCCN)C(=O)N[C@@H](Cc1ccccc1)C(=O)N[C@H](CCCCN)C(=O)N[C@H](CCCCN)C(=O)N[C@H](CCCCN)C(N)=O [lipopeptide #5, p-kFkkk] (Palmitoyl-[dK]F[dK][dK][dK]-NH2)
6 µg/mL

What value of Average MIC has been reported for the following molecule? CCCCCCCCCCCCCCCC(=O)N[C@H](CCCCN)C(=O)N[C@H](CCCCN)C(=O)N[C@H](CCCCN)C(=O)N[C@H](CCCCN)C(=O)N[C@H](CCCCN)C(N)=O [lipopeptide #1, p-kkkkk] (Palmitoyl-[dK][dK][dK][dK][dK]-NH2)
6 µg/mL

What value of Average MIC has been reported for the following molecule? CCCCCCCCCCCCCCCC(=O)N[C@H](CCCCN)C(=O)N[C@H](CCCCN)C(=O)N[C@@H](Cc1ccccc1)C(=O)N[C@H](CCCCN)C(=O)N[C@H](CCCCN)C(N)=O [lipopeptide #4, p-kkFkk] (Palmitoyl-[dK][dK]F[dK][dK]-NH2)
6 µg/mL

* * *

test system: Xanthomonas campestris pv. campestris (Xcc) ATCC 33913; assay: Minimal inhibitory concentration (MIC) assay; format: cell-based; conditions: 24 h, 28° C., ND = non-detected at tested concentrations (up to 200 μg/ml)
Square brackets hold non-standard residues; d marks the D form. Peptide text beside a SMILES is read from it. * marks the point of attachment. Palmitoyl = CCCCCCCCCCCCCCCC(=O)*
assay endpoint: Average MIC (µg/mL)
Form entry: value (µg/mL) — number only.

Provide value of Average MIC for this record tested with Xanthomonas campestris pv. campestris (Xcc) ATCC 33913: CCCCCCCCCCCCCCCC(=O)N[C@@H](Cc1ccccc1)C(=O)N[C@H](CCCCN)C(=O)N[C@H](CCCCN)C(=O)N[C@@H](Cc1ccccc1)C(=O)N[C@H](CCCCN)C(N)=O [lipopeptide #13, p-FkkFk] (Palmitoyl-F[dK][dK]F[dK]-NH2)
6

Provide value of Average MIC for this record tested with Xanthomonas campestris pv. campestris (Xcc) ATCC 33913: CCCCCCCCCCCCCCCC(=O)N[C@H](CCCCN)C(=O)N[C@@H](Cc1ccccc1)C(=O)N[C@@H](Cc1ccccc1)C(=O)N[C@@H](Cc1ccccc1)C(=O)N[C@H](CCCCN)C(N)=O [lipopeptide #23, p-kFFFk] (Palmitoyl-[dK]FFF[dK]-NH2)
100

Source of measurements: patent US20230256102A1
